Assay: Alkaline hydrolysis rate of the compound
Format: ADME
Entries and their Log kOH- values follow.

| STRUCTURE | Log kOH- |
| --- | --- |
| C/C=C/c1cccc2nc(OCC)oc(=O)c12 | 1.41 |
| CCSc1nc2cc(CC)ccc2c(=O)o1 | 1.66 |
| Cc1cccc2nc(C(F)(F)F)oc(=O)c12 | 3.14 |
| CCc1cc(OC)cc2nc(NC(C)C)oc(=O)c12 | -0.6 |
| Cc1cccc2nc(N)oc(=O)c12 | -0.05 |
| CCc1cccc2nc(C)oc(=O)c12 | 0.73 |
| CCCCNc1nc2ccccc2c(=O)o1 | 1.09 |
| CC(C)COC(=O)N(C)c1nc2ccccc2c(=O)o1 | 2.21 |
| CC(C)NC(=O)[C@H](CCC(N)=O)Nc1nc2ccccc2c(=O)o1 | 1.3 |
| COC(=O)[C@H](CC(C)C)Nc1nc2cc(C)cc(C)c2c(=O)o1 | -0.18 |
| Cc1cccc2c(=O)oc(C(F)(F)F)nc12 | 3.09 |
| CCSc1nc2cc3ccccc3cc2c(=O)o1 | 2.54 |
| CNc1nc2cccc(C)c2c(=O)o1 | 0.54 |

###

Biological target: Neutrophil elastase (Homo sapiens)
Sequence (whole entry): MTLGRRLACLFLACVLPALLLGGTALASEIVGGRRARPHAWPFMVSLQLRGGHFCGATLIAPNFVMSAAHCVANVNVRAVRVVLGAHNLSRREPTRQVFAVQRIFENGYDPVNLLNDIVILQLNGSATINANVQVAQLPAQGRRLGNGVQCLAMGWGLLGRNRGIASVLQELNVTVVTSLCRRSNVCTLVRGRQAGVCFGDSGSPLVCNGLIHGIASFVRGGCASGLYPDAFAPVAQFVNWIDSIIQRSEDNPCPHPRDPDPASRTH
Assay: Component deacylation rate constant for interaction with human leukocyte elastase
Entries and their Log koff values follow.

| MOLECULE | TEST_TARGET | Log koff |
| --- | --- | --- |
| Cc1cc(N)cc2nc(NC(C)C)oc(=O)c12 | Neutrophil elastase (Homo sapiens) | -4.75 |
| COc1cc(C)c2c(=O)oc(NC(C)C)nc2c1 | Neutrophil elastase (Homo sapiens) | -3.1 |
| CCCCNc1nc2cccc(CC)c2c(=O)o1 | Neutrophil elastase (Homo sapiens) | -3.27 |
| CCCNc1nc2cccc(C)c2c(=O)o1 | Neutrophil elastase (Homo sapiens) | -3.47 |
| CCC(C)CNc1nc2cccc(C)c2c(=O)o1 (centres undefined) | Neutrophil elastase (Homo sapiens) | -4.13 |
| O=c1oc(NCCc2ccccc2)nc2ccccc12 | Neutrophil elastase (Homo sapiens) | -2.72 |
| CCCC(C)Nc1nc2cccc(C)c2c(=O)o1 (centres undefined) | Neutrophil elastase (Homo sapiens) | -2.43 |
| C/C=C/c1cccc2nc(OCC)oc(=O)c12 | Neutrophil elastase (Homo sapiens) | -4.18 |
| CC(C)C[C@H](NC(=O)C1CCCN1c1nc2ccccc2c(=O)o1)C(N)=O (some centres undefined) | Neutrophil elastase (Homo sapiens) | -3.49 |

###

Test: Partition coefficient (logD7.4)
Type: physicochemical
Settings: octanol/water, pH 7.4

| COMPOUND | logD |
| --- | --- |
| CC(=O)Nc1ccc2c(=O)oc(NC(C)C)nc2c1 | 1.2 |
| CCCNc1nc2ccccc2c(=O)o1 | 2.4 |
| CCOc1nc2cc(N)cc(CC)c2c(=O)o1 | 2.7 |
| CC(C)NC(=O)[C@H](CC(N)=O)Nc1nc2ccccc2c(=O)o1 | 0.2 |
| CCc1ccc2c(=O)oc(NC(C)C)nc2c1 | 3.2 |
| CCc1cc(N)cc2nc(NC(C)C)oc(=O)c12 | 1.6 |
| NC(=O)[C@@H]1CCCN1c1nc2ccccc2c(=O)o1 | 0.4 |
| Nc1ccc(CNc2nc3ccccc3c(=O)o2)cc1 | 2 |
| O=c1oc(NC2CCCCC2)nc2ccccc12 | 3.5 |
| CC(C)C[C@H](NC(=O)C1CCCN1c1nc2ccccc2c(=O)o1)C(N)=O (stereo partly drawn) | 1 |
| O=c1oc(Nc2ccccc2)nc2ccccc12 | 3.5 |
| Cc1cccc2nc(NC(C)C)oc(=O)c12 | 3 |
| O=c1oc(NCc2ccccc2)nc2ccccc12 | 2.8 |

###

Entries and their Ki values follow.
Target: Neutrophil elastase (Homo sapiens)
Test: Inhibition of human leukocyte elastase

| MOLECULE | QUANTITY_UNIT | Ki |
| --- | --- | --- |
| CCN(CC)c1nc2ccccc2c(=O)o1 | µM | 0.372 |
| CC(C)C[C@H](NC(=O)C1CCCN1c1nc2ccccc2c(=O)o1)C(N)=O (stereo partly drawn) | µM | 0.0214 |
| CCOC(=O)Nc1ccc2c(=O)oc(OCC)nc2c1 | µM | 0.0178 |
| CCNc1ccc2c(=O)oc(NC(C)C)nc2c1 | µM | 0.692 |
| O=c1oc(C(F)(F)C(F)(F)C(F)(F)F)nc2ccccc12 | µM | 0.0912 |
| NC(=O)[C@H](Cc1ccccc1)Nc1nc2ccccc2c(=O)o1 | µM | 0.316 |
| CCC(CC)Nc1nc2cccc(C)c2c(=O)o1 | µM | 0.724 |
| Cc1cccc2nc(C(F)(F)F)oc(=O)c12 | µM | 0.0288 |
| CCc1ccc2c(=O)oc(NC(C)C)nc2c1 | µM | 0.182 |
| CCOc1nc2cc(N)ccc2c(=O)o1 | µM | 0.00575 |
| CCCCN(CCCC)c1nc2cccc(C)c2c(=O)o1 | µM | 0.363 |
| CCCC(C)Nc1nc2cccc(C)c2c(=O)o1 (stereo not drawn) | µM | 0.741 |
| CC(C)Nc1nc2cc(N)ccc2c(=O)o1 | µM | 0.776 |

###

Entries and their Ki values follow.
Molecular target: Neutrophil elastase (Homo sapiens, UniProt P08246)
Assay: Inhibition of human leukocyte elastase

| STRUCTURE | TEST_TARGET | Ki |
| --- | --- | --- |
| C/C=C/c1cccc2nc(OCC)oc(=O)c12 | Neutrophil elastase (Homo sapiens, UniProt P08246) | 0.191 nM |
| COc1cccc2nc(Nc3ccccc3)oc(=O)c12 | Neutrophil elastase (Homo sapiens, UniProt P08246) | 158000 nM |
| CCN(CC)c1nc2c(C)ccc(C)c2c(=O)o1 | Neutrophil elastase (Homo sapiens, UniProt P08246) | 105 nM |
| CCC(C)(C)Nc1nc2ccccc2c(=O)o1 | Neutrophil elastase (Homo sapiens, UniProt P08246) | 155 nM |
| CCOC(=O)CNc1nc2ccccc2c(=O)o1 | Neutrophil elastase (Homo sapiens, UniProt P08246) | 64600 nM |
| O=c1oc(C(F)(F)C(F)(F)F)nc2ccccc12 | Neutrophil elastase (Homo sapiens, UniProt P08246) | 110 nM |
| Cc1ccccc1CNc1nc2ccccc2c(=O)o1 | Neutrophil elastase (Homo sapiens, UniProt P08246) | 2820 nM |
| CCc1cccc2c(=O)oc(NC(C)C)nc12 | Neutrophil elastase (Homo sapiens, UniProt P08246) | 1000 nM |
| CCOc1nc2cccc(C)c2c(=O)o1 | Neutrophil elastase (Homo sapiens, UniProt P08246) | 0.115 nM |
| CCOc1nc2c(C)ccc(C)c2c(=O)o1 | Neutrophil elastase (Homo sapiens, UniProt P08246) | 0.0955 nM |
| CCc1cccc2nc(C)oc(=O)c12 | Neutrophil elastase (Homo sapiens, UniProt P08246) | 120 nM |
| O=c1oc(SCc2ccccc2)nc2cc3ccccc3cc12 | Neutrophil elastase (Homo sapiens, UniProt P08246) | 257 nM |
| COc1cc2nc(SCc3c[nH]c4ccccc34)oc(=O)c2cc1OC | Neutrophil elastase (Homo sapiens, UniProt P08246) | 12900 nM |

###

Molecular target: Neutrophil elastase (Homo sapiens)
Sequence (whole entry): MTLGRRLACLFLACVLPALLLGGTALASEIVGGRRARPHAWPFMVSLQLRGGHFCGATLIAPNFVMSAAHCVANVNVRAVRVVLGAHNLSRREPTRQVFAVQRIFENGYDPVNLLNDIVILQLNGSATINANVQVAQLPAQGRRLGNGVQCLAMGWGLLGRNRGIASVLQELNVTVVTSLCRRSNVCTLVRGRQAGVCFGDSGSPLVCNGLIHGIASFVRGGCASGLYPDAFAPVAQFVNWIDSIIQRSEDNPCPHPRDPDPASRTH
Experiment: Component acylation rate constant for interaction with human leukocyte elastase

| MOLECULE | Log kon |
| --- | --- |
| COC(=O)[C@H](CC(C)C)Nc1nc2ccccc2c(=O)o1 | 3.36 |
| CCSc1nc2cc(OC)c(OC)cc2c(=O)o1 | 5 |
| CCOc1nc2cccc(C(Br)Br)c2c(=O)o1 | 7 |
| CCCCNc1nc2cccc(CC)c2c(=O)o1 | 5.11 |
| CCCNc1nc2cccc(C)c2c(=O)o1 | 4.75 |
| CCCCNc1nc2cc(N)ccc2c(=O)o1 | 3.45 |
| CCSc1nc2cccc(C)c2c(=O)o1 | 6.18 |
| C/C=C/c1cccc2nc(OCC)oc(=O)c12 | 5.54 |
| CCSc1nc2ccc(NC(C)=O)cc2c(=O)o1 | 4 |
| CC(C)Nc1nc2cc(N(C)C)ccc2c(=O)o1 | 3 |
| CCCc1cc(N(C)C)cc2nc(NC(C)C)oc(=O)c12 | 2.81 |
| Cc1cc(N)cc2nc(NC(C)C)oc(=O)c12 | 2.36 |
| CCCCN(CCCC)c1nc2ccccc2c(=O)o1 | 2.43 |
| NC(=O)[C@H](Cc1ccccc1)Nc1nc2ccccc2c(=O)o1 | 3.08 |
| CCSc1nc2c(C)cccc2c(=O)o1 | 6.3 |
| Cc1cc(N(C)C)cc2nc(NC(C)C)oc(=O)c12 | 2.01 |
| COC(=O)C(CC(C)C)Nc1nc2ccccc2c(=O)o1 (stereo not drawn) | 4.32 |
| COc1cc(C)c2c(=O)oc(NC(C)C)nc2c1 | 4.32 |
| CCC(CC)Nc1nc2cccc(C)c2c(=O)o1 | 3.89 |
| CCCc1cccc2nc(OCC)oc(=O)c12 | 5.49 |
| Cc1cccc2nc(C(F)(F)F)oc(=O)c12 | 5.11 |
| Cc1nc2c(N)cccc2c(=O)o1 | 3.3 |
| CC(C)Cc1nc2ccccc2c(=O)o1 | 4.3 |
| O=c1oc(/C=C/c2ccccc2)nc2ccccc12 | 2.59 |
| O=c1oc(-c2ccccc2)nc2ccccc12 | 4 |
| Cc1cc(C)c2c(=O)oc(NC(C)C)nc2c1 | 3.41 |
| CNc1nc2cccc(C)c2c(=O)o1 | 3.69 |
| COc1cc2nc(SCc3ccccc3)oc(=O)c2cc1OC | 3.76 |
| Cc1cccc2nc(OCC(C)C)oc(=O)c12 | 3.85 |
| CCCC(C)Nc1nc2cccc(C)c2c(=O)o1 (stereo not drawn) | 3.7 |
| CC(=O)NCc1nc2ccccc2c(=O)o1 | 2.24 |
| COC(=O)[C@H](Cc1ccc(O)cc1)Nc1nc2ccccc2c(=O)o1 | 3.28 |
| CCc1cccc2c(=O)oc(NC(C)C)nc12 | 4.38 |
| COC(=O)[C@@H](CC(C)C)Nc1nc2ccccc2c(=O)o1 | 4.58 |
| CC(C)C[C@H](NC(=O)C1CCCN1c1nc2ccccc2c(=O)o1)C(N)=O (stereo partly drawn) | 4.18 |
| NC(=O)[C@H](Cc1ccccc1)NC(=O)[C@@H]1CCCN1c1nc2ccccc2c(=O)o1 | 4.16 |
| Cc1cccc2c(=O)oc(C(F)(F)F)nc12 | 4 |
| CC(C)CN(CC(C)C)c1nc2ccccc2c(=O)o1 | 2.18 |
| CCCNC(=O)Nc1ccc2c(=O)oc(NC(C)C)nc2c1 | 4.1 |
| CC(C)Nc1nc2ccccc2c(=O)o1 | 4.77 |
| CCOC(=O)[C@H](C)Nc1nc2ccccc2c(=O)o1 | 3.41 |
| O=c1oc(NCCc2ccccc2)nc2ccccc12 | 3.05 |
| CCOc1nc2cc(N(C)C)ccc2c(=O)o1 | 3.46 |
| CSc1nc2cccc(C)c2c(=O)o1 | 5.4 |
| COc1cc2nc(SCc3c[nH]cn3)oc(=O)c2cc1OC | 3.84 |
| CCC(C)CNc1nc2cccc(C)c2c(=O)o1 (stereo not drawn) | 2.05 |
| O=C(c1nc2ccccc2c(=O)o1)[C@@H]1CCCN1 | 2.95 |
| CC(C)C[C@H](NC(=O)[C@@H]1CCCN1c1nc2ccccc2c(=O)o1)C(=O)NCC(N)=O | 4.04 |
